# Tested on: S. aureus 25923
With a cut-off of 2 µg/mL, any MIC strictly below it is called 1; any MIC meeting it or above is called -1.

Examples from the recorded data:
# mol, system, class.name
measured = [
    ("COc1cc(O)c(CSC[C@H](NC(C)=O)c2nc(C)no2)c(C#N)c1C", "S. aureus 25923", -1),
    ("COC(=O)c1c(C)c(OC)cc(O)c1CSC[C@H](Nc1nc(-c2ccccc2)ns1)c1nc(C)no1", "S. aureus 25923", -1),
    ("C#CCNC(=O)[C@@H]1CSCc2c(O)cc(OC)c(C)c2C(=O)OCCCCC(=S)N1", "S. aureus 25923", 1),
    ("COC(=O)c1c(Br)c(OC)cc(O)c1CSC[C@H](Nc1nc(-c2ccc(C(=O)O)cc2)cs1)c1nc(C)no1", "S. aureus 25923", -1),
]

Query :: I wonder whether COC(=O)[C@@H]1CSCc2c(O)cc(OC)c(C)c2C(=O)OCCCCC(=S)N1 has MIC below 2 µg/mL. Can you tell?
Result :: 1

Query :: I wonder whether COc1cc(O)c2c(c1C)C(=O)O[C@H](CO)CCC(=S)N[C@H](C(=O)NC1CCCC1)CSC2 has MIC below 2 µg/mL. Can you tell?
Result :: -1

Query :: I wonder whether COC(=O)[C@@H]1CSCc2c(O)cc(OC)c(C)c2C(=O)OC[C@H](O)CCC(=S)N1 has MIC below 2 µg/mL. Can you tell?
Result :: 1

Query :: I wonder whether COc1cc(O)c2c(c1C)C(=O)OCCCCC(=S)N[C@H](c1nc(CN)no1)CSC2.Cl has MIC below 2 µg/mL. Can you tell?
Result :: 1

Query :: I wonder whether COC(=O)c1c(Cl)c(OC)cc(O)c1CSC[C@H](NC(C)=S)c1nc(C)no1 has MIC below 2 µg/mL. Can you tell?
Result :: -1

* * *

# Tested on: P. aeruginosa 799/61
# assay.notes: Antibacterial activity in vitro (agar dilution)
# Assay type: cell-based
# condition.context: Pseudomonas aeruginosa, agar dilution (MuellerHinton agar), inoculum 10^4 CFU/spot, read-out: minimum inhibitory concentration (MIC)
attribute.measured: MIC (µg/mL)
Numbers only here, please. The scale is µg/mL.

# mol, MIC (µg/mL)
records = [
    ("COC(=O)[C@@H]1CSCc2c(O)cc(OC)c(C)c2C(=O)O[C@H](COC(C)=O)CCC(=S)N1", 8),
    ("COC(=O)c1c(Br)c(OC)cc(O)c1CSC[C@H](NC(C)=S)c1nc(C)no1", 64),
]

Now for a further compound.
Query :: For P. aeruginosa 799/61, give the measured MIC of the entry COc1cc(O)c2c(c1C)C(=O)O[C@H](CO)CCC(=S)N[C@H](C(=O)NC1CCCC1)CSC2
Result :: 8

* * *

# Test system: P. aeruginosa 799/61
# assay.notes: Antibacterial activity in vitro (agar dilution)
# Format: cell-based
# condition.context: Pseudomonas aeruginosa, agar dilution (MuellerHinton agar), inoculum 10^4 CFU/spot, read-out: minimum inhibitory concentration (MIC)
Where a name gives a salt, the structure may show the parent alone.
attribute.measured: MIC

Below are worked cases with known answers.
# compound, MIC
rows = [
    ("COC(=O)c1c(Br)c(OC)cc(O)c1CSC[C@H](Nc1nc(-c2ccc(C(=O)O)cc2)cs1)c1nc(C)no1 [Example 171]", "> 64 µg/mL"),
    ("COc1cc(O)c2c(c1C)C(=O)OCCCCC(=O)N[C@H](c1nc(CNC(C)C)no1)CSC2 [Example 132, hydrochloride]", "> 64 µg/mL"),
    ("COc1cc(O)c2c(c1C)C(=O)OCCCCC(=S)N[C@H](C(N)=O)CSC2 [Example 69]", "> 64 µg/mL"),
]

Query :: Respond only with MIC recorded for COC(=O)c1c(Cl)c(OC)cc(O)c1CSC[C@H](NC(C)=S)c1nc(C)no1 [Example 92]
Result :: 64 µg/mL

* * *

Parameter MIC, tested on S. aureus Smith, listed per item.
Where a name gives a salt, the structure may show the parent alone.
Numbers only here, please. The scale is µg/mL.

# compound, observed.result
rows = [
    ("COc1cc(O)c2c(c1C)C(=O)O[C@H](CO)CCC(=S)N[C@H](C(=O)NC1CCCC1)CSC2", 8),
    ("COc1cc(O)c2c(c1C)C(=O)OCCCCC(=S)N[C@H](c1nc(CN)no1)CSC2.Cl", 0.25),
    ("COc1cc(O)c2c(c1C)C(=O)OCCCCC(=S)N[C@H](c1nc(CNC(C)=O)no1)CSC2", 1),
    ("C#CCNC(=O)[C@@H]1CSCc2c(O)cc(OC)c(C)c2C(=O)OCCCCC(=S)N1", 0.5),
    ("COC(=O)[C@@H]1CSCc2c(O)cc(OC)c(C)c2C(=O)O[C@H](COC(C)=O)CCC(=S)N1", 0.5),
    ("COc1cc(O)c2c(c1C)C(=O)OCCCCC(=S)N[C@H](C(N)=O)CSC2", 2),
]

Query :: For S. aureus Smith, give the measured MIC of the entry COC(=O)[C@@H]1CSCc2c(O)cc(OC)c(C)c2C(=O)OCCCCC(=S)N1
Result :: 0.25

Query :: For S. aureus Smith, give the measured MIC of the entry COC(=O)c1c(Cl)c(OC)cc(O)c1CSC[C@H](NC(C)=S)c1nc(C)no1
Result :: 2

Query :: For S. aureus Smith, give the measured MIC of the entry COc1cc(O)c2c(c1C)C(=O)OCCCCC(=O)N[C@H](c1nc(CNC(C)C)no1)CSC2 [Example 132, hydrochloride]
Result :: 2

Query :: For S. aureus Smith, give the measured MIC of the entry COc1cc(O)c2c(c1C)C(=O)OCCCCC(=O)N[C@H](c1nc(C)no1)CSC2
Result :: 0.25

Query :: For S. aureus Smith, give the measured MIC of the entry COC(=O)c1c(C)c(OC)cc(O)c1CSC[C@H](Nc1nc(-c2ccccc2)ns1)c1nc(C)no1
Result :: 1

Query :: For S. aureus Smith, give the measured MIC of the entry COC(=O)[C@@H]1CSCc2c(O)cc(OC)c(C)c2C(=O)OC[C@H](O)CCC(=S)N1
Result :: 0.5

Query :: For S. aureus Smith, give the measured MIC of the entry COc1cc(O)c(CSC[C@H](NC(C)=O)c2nc(C)no2)c(C#N)c1C
Result :: 8

* * *

# system: DNA gyrase (Escherichia coli, UniProt P0AES4+P0AES6)
# Construct: supercoiling of relaxed pUC18
# assay.notes: Inhibition of DNA gyrase activity (DNA gyrase supercoiling assay, relaxed pUC18 plasmid as substrate)
# Type: biochemical, E. coli H560
With a cut-off of 0.04 µg/mL, any maximum non-effective concentration of the test compound (MNC) strictly below it is called criterion met; any maximum non-effective concentration of the test compound (MNC) meeting it or above is called criterion not met.

# mol, class.name
measured = [
    ("COc1cc(O)c2c(c1C)C(=O)OCCCCC(=O)N[C@H](c1nc(C)no1)C[S@@+]([O-])C2", "criterion not met"),
]

Then there is this compound:
Query :: I wonder whether COc1cc(O)c2c(c1C)C(=O)O[C@H](CO)CCC(=S)N[C@H](c1nc(C)no1)CSC2 has maximum non-effective concentration of the test compound (MNC) below 0.04 µg/mL. Can you tell?
Result :: criterion met

* * *

Parameter MIC, tested on E. coli B, listed per item.
Structures can show the parent of a compound that is named as a salt.
Numbers only here, please. The scale is µg/mL.

Below are worked cases with known answers.
# compound, system, MIC, µg/mL
measured = [
    ("COc1cc(O)c2c(c1C)C(=O)OCCCCC(=O)N[C@H](c1nc(CNC(C)C)no1)CSC2 [Example 132, hydrochloride]", "E. coli B", 64),
    ("COc1cc(O)c2c(c1C)C(=O)OCCCCC(=O)N[C@H](c1nc(C)no1)CSC2 [Example 33]", "E. coli B", 32),
    ("COc1cc(O)c2c(c1C)C(=O)OCCCCC(=S)N[C@H](c1nc(CN)no1)CSC2.Cl [Example 130]", "E. coli B", 32),
    ("COc1cc(O)c2c(c1C)C(=O)O[C@H](CO)CCC(=S)N[C@H](C(=O)NC1CCCC1)CSC2 [Example 14]", "E. coli B", 64),
]

Now for a further compound.
Query :: Respond only with MIC recorded for COc1cc(O)c(CSC[C@H](NC(C)=O)c2nc(C)no2)c(C#N)c1C [Example 97]
Result :: 64

* * *

Form field: MIC (one value per entry).
# Tested on: S. aureus 25923
Counter-ions that a name gives are not always drawn.
Numbers only here, please. The scale is µg/mL.

Below are worked cases with known answers.
# compound, quantity.unit, observed.result
data = [
    ("COc1cc(O)c2c(c1C)C(=O)OCCCCC(=S)N[C@H](C(N)=O)CSC2", "µg/mL", 4),
    ("COC(=O)[C@@H]1CSCc2c(O)cc(OC)c(C)c2C(=O)O[C@H](COC(C)=O)CCC(=S)N1", "µg/mL", 0.5),
    ("COc1cc(O)c2c(c1C)C(=O)OCCCCC(=O)N[C@H](c1nc(CNC(C)C)no1)CSC2 [Example 132, hydrochloride]", "µg/mL", 4),
]

Now for a further compound.
Query :: For S. aureus 25923, give the measured MIC of the entry COc1cc(O)c2c(c1C)C(=O)OCCCCC(=O)N[C@H](c1nc(C)no1)CSC2
Result :: 0.5
